TEST TARGET: Solute carrier family 22 member 2 (Homo sapiens)
Sequence (O15244 whole entry): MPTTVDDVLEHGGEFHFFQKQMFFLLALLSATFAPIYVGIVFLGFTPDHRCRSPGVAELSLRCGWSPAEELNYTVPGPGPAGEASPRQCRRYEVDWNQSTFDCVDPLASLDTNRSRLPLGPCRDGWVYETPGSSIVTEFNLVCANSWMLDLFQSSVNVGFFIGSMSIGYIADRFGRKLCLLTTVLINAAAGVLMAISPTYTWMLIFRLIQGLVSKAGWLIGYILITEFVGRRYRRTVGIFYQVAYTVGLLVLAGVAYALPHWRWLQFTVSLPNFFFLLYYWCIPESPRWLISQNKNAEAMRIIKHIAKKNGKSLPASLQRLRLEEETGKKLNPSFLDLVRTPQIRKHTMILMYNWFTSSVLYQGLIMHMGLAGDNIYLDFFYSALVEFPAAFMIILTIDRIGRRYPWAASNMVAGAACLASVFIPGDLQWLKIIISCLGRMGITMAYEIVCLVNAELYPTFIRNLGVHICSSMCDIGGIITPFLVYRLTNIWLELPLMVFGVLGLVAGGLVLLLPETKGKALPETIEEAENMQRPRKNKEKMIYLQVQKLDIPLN
ASSAY INFO: TP_TRANSPORTER: inhibition of MPP+ uptake (MPP+: 0.025 uM) in OCT2-expressing HEK293 cells
METRIC: IC50

Here is how some molecules turned out for IC50.
CCN1/C(=C/c2ccc3ccccc3[n+]2CC)C=Cc2ccccc21    1130 nM
C[C@]12C[C@H](O)[C@H]3[C@@H](CCC4=CC(=O)CC[C@@]43C)[C@@H]1CC[C@@H]2C(=O)CO [CORTICOSTERONE]    34200 nM
COc1cc(C(O)CNC(C)C)ccc1O (centres undefined) [METIPRENALINE]    > 100000 nM

For the next question, use this molecule.
INPUT: Data request, read-out IC50, for CN(CCCl)C1c2ccccc2-c2ccccc21
OUTPUT: 100 nM

Value source: ChEMBL document CHEMBL2074233
